B1: KLHL12 (parent)
chain: SMTTPRCYVGATVLRGRLYAIAGY

# Variants of: B1
# assayText: protein stability index of a GFP-peptide fusion (GPS, HEK-293T) (PSI 1-6); higher = more stable;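 note: lentivirally expressed fusions sorted by FACS into six bins by GFP to DsRed ratio, PSI derived from sequencing read proportions per bin multiplied by bin number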
# measurementContext: c terminus: a fixed tail appended
# label = Criterion met if protein stability index >= 2 else Criterion not met

protein stability index >= 2 for `V9I` ?
Criterion met

Record: `Y24L`
Criterion met

Record: `R17Q`
Criterion not met

Record: `L14G`
Criterion not met

Record: `G16F`
Criterion met

Record: `Y19N`
Criterion met

Record: `R17M`
Criterion met

Record: `R17A`
Criterion not met

Record: `R17N`
Criterion met

Record: `Y24C`
Criterion not met

Record: `L18P`
Criterion not met

Record: `Y19G`
Criterion met

Record: `Y24H`
Criterion not met

Record: `A20H`
Criterion not met

Record: `V13C`
Criterion not met

Record: `V13F`
Criterion not met

Record: `T12E`
Criterion not met

Record: `Y24I`
Criterion met

Record: `Y8D`
Criterion not met

Record: `Y24A`
Criterion not met

Record: `A20F`
Criterion met

Record: `V13T`
Criterion not met

Record: `T3I`
Criterion not met

Value source: the supplement of paper PMC10567573
